# test description: SK-BR-3 cell growth inhibitors, pilot screen, 24 h, human (AID 572);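 note: compound exposure lasted between 18 and 24 h rather than exactly 24 h; 100% = carrier-treated control wells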
# experimental parameters: SK-BR-3 viability, CellTiter-Glo luminescence, at 10 µM, stronger effect = lower value
Hi there, I'd appreciate the recorded viability for every entry that follows.
Report as a plain number; the unit % is understood.

-- ask Given the entry CCCCn1cnc2c1c(=O)n(C)c(=O)n2C , report its measured viability.
-- reply 77

-- ask Given the entry O=C(O)c1cccc(NC(=O)C23CC4CC(C2)CC(n2cnc(Cl)n2)(C4)C3)c1 , report its measured viability.
-- reply 122

-- ask Given the entry COc1ccc(Cn2c(N)c(C#N)c3nc4ccccc4nc32)cc1OC , report its measured viability.
-- reply 95

----------
# test description: reversal of MRP1-mediated doxorubicin resistance, pilot screen, H69AR cells, doxorubicin co-treatment (AID 601)
# experimental parameters: H69AR cells, CellTiter-Glo, 72 h; compound alone cytotoxicity; at 10 µM
Hi there, I'd appreciate the recorded viability for every entry that follows.
Report as a plain number; the unit % is understood.

-- ask Given the entry COCCNC(=O)c1ccc(CS(=O)(=O)c2ccc(OC)cc2)o1 , report its measured viability.
-- reply 109

-- ask Given the entry Clc1ccc2c(c1)C(N1CCNCC1)=Nc1ccccc1O2 , report its measured viability.
-- reply 84.4

-- ask Given the entry O=C(c1ccco1)N1CCN(c2c(-c3ccccc3)c3cc(Cl)ccc3[nH]c2=O)CC1 , report its measured viability.
-- reply 24.5

-- ask Given the entry COC(=O)c1ccc(C(=O)OC)c(NC(=O)Nc2ccc3c(c2)OCO3)c1 , report its measured viability.
-- reply 92.7

-- ask Given the entry N#Cc1cc2ccccc2nc1SCC(=O)Nc1ccccc1N1CCOCC1 , report its measured viability.
-- reply 82.2

-- ask Given the entry Clc1ccccc1OCCCCn1ccnc1 , report its measured viability.
-- reply 83.7

-- ask Given the entry COc1cc2c(C#N)c(N3CCN(c4ccccc4OC)CC3)nc(N)c2c(N)n1 , report its measured viability.
-- reply 67.8

-- ask Given the entry Fc1c(F)c(F)c(CSc2nc3ccccc3[nH]2)c(F)c1F , report its measured viability.
-- reply 95.8

-- ask Given the entry O=C(O)C1CCCN1C(=O)c1cccs1 (centres undefined) , report its measured viability.
-- reply 103

----------
Hi there, I'd appreciate the recorded viability for every entry that follows.
# test description: reversal of MRP1-mediated doxorubicin resistance, pilot screen, H69AR cells, doxorubicin co-treatment (AID 601)
# experimental parameters: H69AR cells, CellTiter-Glo, 72 h; compound alone cytotoxicity; at 10 µM
Report as a plain number; the unit % is understood.

-- ask Given the entry Cc1ccc2c(c1C)NC(=O)C2(O)CC(=O)c1ccc2c(c1)OCO2 (centres undefined) , report its measured viability.
-- reply 88

-- ask Given the entry Cc1ccc(-n2ncc3c(=O)n(CC(=O)N4CCCc5ccccc54)cnc32)cc1C , report its measured viability.
-- reply 90.8

-- ask Given the entry CNC[C@H](O)c1cccc(O)c1 , report its measured viability.
-- reply 92.5

-- ask Given the entry CC1CCc2nc(NC(=O)CN3CCN(Cc4ccc5c(c4)OCO5)CC3)sc2C1 (centres undefined) , report its measured viability.
-- reply 87.8

----------
# experimental system: Receptor tyrosine-protein kinase erbB-2 (Homo sapiens) (UniProt P04626)
# Sequence (P04626 whole entry, looked up): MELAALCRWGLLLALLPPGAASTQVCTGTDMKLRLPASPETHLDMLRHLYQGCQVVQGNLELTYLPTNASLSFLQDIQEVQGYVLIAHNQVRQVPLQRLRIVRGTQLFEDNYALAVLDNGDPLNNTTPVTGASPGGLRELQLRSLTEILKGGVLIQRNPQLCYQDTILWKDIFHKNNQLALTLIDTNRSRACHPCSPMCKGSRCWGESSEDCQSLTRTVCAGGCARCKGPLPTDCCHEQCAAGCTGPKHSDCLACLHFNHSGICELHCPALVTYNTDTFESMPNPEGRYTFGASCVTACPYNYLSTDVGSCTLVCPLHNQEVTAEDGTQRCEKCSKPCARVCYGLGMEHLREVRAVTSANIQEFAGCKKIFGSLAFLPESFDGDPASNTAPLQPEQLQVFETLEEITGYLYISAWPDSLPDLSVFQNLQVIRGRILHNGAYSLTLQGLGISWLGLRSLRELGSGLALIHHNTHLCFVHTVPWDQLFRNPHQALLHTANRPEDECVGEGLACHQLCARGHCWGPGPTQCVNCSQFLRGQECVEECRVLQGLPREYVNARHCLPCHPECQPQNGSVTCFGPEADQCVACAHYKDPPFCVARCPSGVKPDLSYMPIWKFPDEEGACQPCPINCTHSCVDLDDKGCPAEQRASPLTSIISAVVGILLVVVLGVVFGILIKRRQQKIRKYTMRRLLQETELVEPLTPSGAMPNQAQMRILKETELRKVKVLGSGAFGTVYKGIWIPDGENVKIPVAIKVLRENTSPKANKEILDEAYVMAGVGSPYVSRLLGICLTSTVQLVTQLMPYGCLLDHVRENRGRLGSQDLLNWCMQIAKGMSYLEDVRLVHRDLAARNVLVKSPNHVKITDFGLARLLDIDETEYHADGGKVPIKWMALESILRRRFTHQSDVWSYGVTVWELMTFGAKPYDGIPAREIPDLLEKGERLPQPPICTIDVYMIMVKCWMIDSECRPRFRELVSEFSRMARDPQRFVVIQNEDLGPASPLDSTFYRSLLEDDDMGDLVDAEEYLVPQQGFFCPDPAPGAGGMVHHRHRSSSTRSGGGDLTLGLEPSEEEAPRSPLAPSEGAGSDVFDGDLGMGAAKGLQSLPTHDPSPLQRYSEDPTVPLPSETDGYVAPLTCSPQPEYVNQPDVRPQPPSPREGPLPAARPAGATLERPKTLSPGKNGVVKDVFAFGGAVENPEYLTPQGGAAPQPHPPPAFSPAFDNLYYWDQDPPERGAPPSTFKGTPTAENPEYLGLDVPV
# test description: reducers of endogenous Her2 protein level, primary screen, SKBR3 breast tumor cells, AlphaScreen, ATP viability (AID 461);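 note: lower value means less Her2 protein in the cells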
# experimental parameters: 18-24 h, at 10 µM, stronger effect = lower value
Hi there, I'd appreciate the recorded Her2 level for every entry that follows.
Report as a plain number; the unit % is understood.

-- ask Given the entry Cc1cc(Nc2ccccc2F)n2ncnc2n1 , report its measured Her2 level.
-- reply 97.5

-- ask Given the entry Cc1cc(N2CCN(C)CC2)nc(N2CCOCC2)n1 , report its measured Her2 level.
-- reply 89.5

-- ask Given the entry C=CCn1c(N)c(C(=O)OC(C)(C)C)c2nc3ccccc3nc21 , report its measured Her2 level.
-- reply 90.5

-- ask Given the entry CCOC(=O)N1CCC(N2C(=O)c3ccccc3C2Nc2cccnc2)CC1 (configuration not stated) , report its measured Her2 level.
-- reply 104

-- ask Given the entry O=C(Nc1cccc(F)c1)N1CC=C(n2c(=O)[nH]c3ccccc32)CC1 , report its measured Her2 level.
-- reply 86.5

-- ask Given the entry O=C1CSC(c2cn(-c3ccccc3)nc2-c2cccs2)N1CC1CCCO1 (configuration not stated) , report its measured Her2 level.
-- reply 90

-- ask Given the entry Cc1ccc(CNC(=O)c2coc(=O)c3ccccc23)o1 , report its measured Her2 level.
-- reply 81

Measured values drawn from PubChem BioAssay for this set.
